molecular target: T1, cyBCMA (cynomolgus, UniProt A0A2K5UD97 1-53); assay: SPR, immobilised IgG, 25° C
T1 construct: Soluble analyte in SPR; construct not described; also called cyno BCMA
T1 sequence (A0A2K5UD97 entry or part of it): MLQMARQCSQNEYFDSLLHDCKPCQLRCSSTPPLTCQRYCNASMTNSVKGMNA
quantity measured: T½
Record the result as number plus unit.

Fill blank: measured T½ of the binder L1.LGF/L3.KW/H3.AP (antibody, V domains shown, IgG in the assay) VH: EVQLLESGGGLVQPGGSLRLSCAASGFTFGSYAMTWVRQAPGKGLEWVSAISGSGGNTFYADSVKGRFTISRDNSKNTLYLQMNSLRAEDTAVYYCARVSPIAAPMDYWGQGTLVTVSS VL: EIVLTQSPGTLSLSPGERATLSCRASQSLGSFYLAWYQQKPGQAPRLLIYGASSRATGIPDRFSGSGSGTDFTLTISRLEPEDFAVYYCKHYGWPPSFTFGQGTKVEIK is ____.
0.7 min

Which T½ value is on record for L1.LGF/L3.PY/H3.AP (antibody, V domains shown, IgG in the assay) VH: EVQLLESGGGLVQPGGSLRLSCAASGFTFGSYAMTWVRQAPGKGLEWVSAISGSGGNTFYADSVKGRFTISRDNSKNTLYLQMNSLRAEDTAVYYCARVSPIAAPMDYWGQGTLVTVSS VL: EIVLTQSPGTLSLSPGERATLSCRASQSLGSFYLAWYQQKPGQAPRLLIYGASSRATGIPDRFSGSGSGTDFTLTISRLEPEDFAVYYCQHYPYPPSFTFGQGTKVEIK ?
0.9 min

Returns the measured T½ for the input binder. Input: L3.KW/P6E01 (antibody, V domains shown, IgG in the assay) VH: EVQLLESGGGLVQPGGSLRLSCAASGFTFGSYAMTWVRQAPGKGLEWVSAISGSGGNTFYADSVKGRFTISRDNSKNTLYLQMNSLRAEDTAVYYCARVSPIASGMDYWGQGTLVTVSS VL: EIVLTQSPGTLSLSPGERATLSCRASQSVSSSYLAWYQQKPGQAPRLLIYGASSRATGIPDRFSGSGSGTDFTLTISRLEPEDFAVYYCKHYGWPPSFTFGQGTKVEIK
4.5 min

Bench note: what T½ did L1.GDF/L3.KW/H3.AQ (antibody, V domains shown, IgG in the assay) VH: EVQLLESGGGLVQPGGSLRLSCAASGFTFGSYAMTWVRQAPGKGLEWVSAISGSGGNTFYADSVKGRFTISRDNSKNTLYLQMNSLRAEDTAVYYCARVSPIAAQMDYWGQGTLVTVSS VL: EIVLTQSPGTLSLSPGERATLSCRASQSVGDFYLAWYQQKPGQAPRLLIYGASSRATGIPDRFSGSGSGTDFTLTISRLEPEDFAVYYCKHYGWPPSFTFGQGTKVEIK show?
2 min
